Target: FXR (Homo sapiens, UniProt Q96RI1)
Sequence (Q96RI1 whole entry, species assumed): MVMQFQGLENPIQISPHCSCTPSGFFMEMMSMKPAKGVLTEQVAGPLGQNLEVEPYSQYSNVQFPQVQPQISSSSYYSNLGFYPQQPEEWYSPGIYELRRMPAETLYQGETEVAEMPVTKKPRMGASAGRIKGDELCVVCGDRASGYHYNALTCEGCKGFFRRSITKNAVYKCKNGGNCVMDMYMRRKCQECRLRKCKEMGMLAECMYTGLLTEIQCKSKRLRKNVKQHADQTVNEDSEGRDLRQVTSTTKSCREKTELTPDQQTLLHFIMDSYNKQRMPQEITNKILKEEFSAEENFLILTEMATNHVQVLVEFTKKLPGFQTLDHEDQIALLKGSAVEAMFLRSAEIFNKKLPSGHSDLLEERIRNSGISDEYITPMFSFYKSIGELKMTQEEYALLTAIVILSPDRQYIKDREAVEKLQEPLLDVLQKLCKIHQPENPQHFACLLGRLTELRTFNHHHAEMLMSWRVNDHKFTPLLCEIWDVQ
Test: Intracellular FXR-TR-FRET experiment (pBIND-FXR / pG5Luc dual luciferase)
Conditions: cellular level, 18 hours with compound
Measured log10 EC50, listed per entry for reference.
Please be aware that the numbers have been log10-transformed from EC50 in nM.

INSERT INTO measurements (compound, quantitymeasured, quantitativereadout) VALUES
  ('O=C(O)c1cccc(N2CC(O)(c3cnc(OCc4c(-c5c(Cl)cccc5Cl)noc4C4CC4)cn3)C2)c1', 'log10 EC50', 3.50),
  ('Cc1cc(C(=O)O)cc(C2CC(O)(c3cnc(OCc4c(-c5c(Cl)cccc5Cl)noc4C4CC4)cn3)C2)c1 (stereo not drawn)', 'log10 EC50', 3.18),
  ('O=C(O)c1cccc(C2CC(O)(c3cnc(OCc4c(-c5c(Cl)cccc5Cl)noc4C4CC4)cn3)C2)c1 (stereo not drawn)', 'log10 EC50', 3.11),
  ('O=C(O)c1cccc(C2CC(O)(c3ccc(OCc4c(-c5c(Cl)cccc5Cl)noc4C4CC4)cc3Cl)C2)c1 (stereo not drawn) [Compound M3, reference compound]', 'log10 EC50', 3.17),
  ('CC(C)c1onc(-c2c(Cl)cccc2Cl)c1COc1cnc(C2(O)CC(c3cccc(C(=O)O)c3)C2)cn1 (stereo not drawn)', 'log10 EC50', 3.25);

Next compound, please.
Tell me reported log10 EC50 for Cc1cc(C(=O)O)cc(C2CC(O)(c3cnc(OCc4c(-c5c(Cl)cccc5Cl)noc4C(C)C)cn3)C2)c1 (stereo not drawn) , tested with FXR (Homo sapiens, UniProt Q96RI1). 2.41
